assayed target: Tumor necrosis factor receptor superfamily member 1A (Homo sapiens)
protocol summary: Compound was tested for inhibition of TNF-alpha binding to TNFRc1 at a concentration of 10 uM
readout kind: inhibition
State the value, then name its unit.

Value lookup for inhibition; key = `CCN1C(=O)C(=Cc2ccccn2)C(=O)N(CC)C1=S`
0%

What measured inhibition goes with `C=CCN1C(=O)c2cc3cc(OCc4ccccc4)ccc3n2C1=S` ?
46%

What does the record list as inhibition for `CCN1C(=O)C(=Cc2cnc3ccccc3c2)C(=O)N(CC)C1=S` ?
0%

// inhibition lookup, key: `C=CCN1C(=O)c2cc3cc(Cl)ccc3n2C1=S`
17%

If you can, please state the reported inhibition value of `CCN1C(=O)C(=Cc2cccnc2)C(=O)N(CC)C1=S` .
0%

Any idea what its inhibition is? The compound is `CCN1C(=O)C(=Cc2cc([N+](=O)[O-])cs2)C(=O)N(CC)C1=S`
0%

Could you share which inhibition value was measured for CCN1C(=O)C2Cc3c(OC)cc(OC)cc3N2C1=S (stereo not given) ?
0%

Name the recorded inhibition for `CCN1C(=O)C(=Cc2ccc3ccccc3n2)C(=O)N(CC)C1=S` .
0%

For `COc1cc(OC)c2c(C)c3n(c2c1)C(=O)CN(Cc1ccccc1)C3=O` , what is its reported inhibition?
0%

Any idea what its inhibition is? The compound is `O=C1C(=Cc2c[nH]c3ccccc23)C(=O)N(c2ccccc2)C(=S)N1c1ccccc1`
9%

---

assayed target: Tumor necrosis factor receptor superfamily member 1A (Homo sapiens, UniProt P19438)
Sequence (P19438 whole entry): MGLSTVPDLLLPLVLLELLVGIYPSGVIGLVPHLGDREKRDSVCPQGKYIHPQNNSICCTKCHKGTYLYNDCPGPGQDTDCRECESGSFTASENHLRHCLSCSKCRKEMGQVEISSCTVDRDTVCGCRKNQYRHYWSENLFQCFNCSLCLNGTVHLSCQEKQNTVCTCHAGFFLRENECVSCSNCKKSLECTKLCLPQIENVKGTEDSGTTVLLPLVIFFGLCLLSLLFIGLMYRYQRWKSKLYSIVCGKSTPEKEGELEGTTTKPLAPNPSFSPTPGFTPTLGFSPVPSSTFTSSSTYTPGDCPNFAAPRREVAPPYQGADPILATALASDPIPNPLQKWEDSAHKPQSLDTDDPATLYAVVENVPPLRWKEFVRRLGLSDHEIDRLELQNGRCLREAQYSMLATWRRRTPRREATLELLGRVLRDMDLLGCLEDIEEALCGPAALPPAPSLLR
pIC50: −log10 of the molar value.
Rule: Condition met for pIC50 not less than 6, Condition not met for anything less.

Is reported pIC50 greater than or equal to 6 here: `CCN1C(=O)C(=Cc2ccc(C)s2)C(=O)N(CC)C1=S`
Condition not met

Check this molecule for pIC50 at or above 6: `CCN1C(=O)/C(=C/c2ccc(-c3cc(C(F)(F)F)nn3C)s2)SC1=S`
Condition met

Hello, I need to know if `CCN1C(=O)C(=Cc2ccc(-c3ccccc3C(F)(F)F)o2)C(=O)N(CC)C1=S` has measured pIC50 not below 6. Thanks!
Condition not met

Could you please find out whether `CCN1C(=O)C(=Cc2c[nH]c3ccc(OCc4ccccc4)cc23)C(=O)N(CC)C1=S` has pIC50 that meets 6 or exceeds it?
Condition met

Quick check, pIC50 >= 6? `CN1C(=O)C(=Cc2c[nH]c3ccccc23)C(=O)N(C)C1=S`
Condition not met

Quick check, pIC50 >= 6? `COC(=O)c1sccc1-c1ccc(C=C2C(=O)N(c3ccccc3)C(=S)N(c3ccccc3)C2=O)o1`
Condition not met

Would you say `CCN1C(=O)c2cc3c(OC)cc(OCOC)cc3n2C1=S` shows pIC50 at minimum 6?
Condition met

Reported pIC50 at or above 6? `CCN1C(=O)/C(=C/c2ccc(-c3ccsc3C(=O)OC)o2)SC1=S`
Condition met

Determine whether this molecule has pIC50 no lower than 6: `CCN1C(=O)C(=Cc2cc3ccccc3[nH]2)C(=O)N(CC)C1=S`
Condition not met

Threshold query (pIC50 >= 6) on `C=CCN1C(=O)c2cc3c(OC)cccc3n2C1=S`
Condition not met

API: above_or_equal(metric=pIC50, cutoff=6) for item `C=CCN1C(=S)c2c(C)c3c(OC)cc(OC)cc3n2C1=S`
Condition met

# check: pIC50 of `C=CCN1C(=O)c2cc3ccc(OC)cc3n2C1=S` is greater than or equal to 6
Condition not met

Please check the record `COc1cc(OC)c2cc3n(c2c1)C(=S)N(CCc1ccccc1)C3=O` and state if its pIC50 is at or above 6.
Condition not met

Identify whether the reported pIC50 of the following molecule is 6 or greater: `C=CCN1C(=O)n2c(c(C)c3c(OC)cc(OC)cc32)C1=S`
Condition met

Threshold query (pIC50 >= 6) on `CCN1C(=O)/C(=C/c2ccc(-c3ccccc3C(F)(F)F)o2)SC1=S`
Condition met

Given the entry `CCN1C(=O)C(=Cc2ccc(-c3ccsc3C(=O)OC)o2)C(=O)N(CC)C1=S` , answer whether its pIC50 meets or surpasses 6.
Condition not met

Please indicate if the recorded pIC50 for `CCN1C(=O)C(=Cc2cn(C)c3ccccc23)C(=O)N(CC)C1=S` meets or exceeds 6.
Condition met

Could you verify whether the entry `C=CCN1C(=O)n2c(cc3c(OC)cc(OC)cc32)C1=S` shows pIC50 of no less than 6?
Condition met

---

assayed target: UniProtKB P19438
Sequence (P19438 whole entry): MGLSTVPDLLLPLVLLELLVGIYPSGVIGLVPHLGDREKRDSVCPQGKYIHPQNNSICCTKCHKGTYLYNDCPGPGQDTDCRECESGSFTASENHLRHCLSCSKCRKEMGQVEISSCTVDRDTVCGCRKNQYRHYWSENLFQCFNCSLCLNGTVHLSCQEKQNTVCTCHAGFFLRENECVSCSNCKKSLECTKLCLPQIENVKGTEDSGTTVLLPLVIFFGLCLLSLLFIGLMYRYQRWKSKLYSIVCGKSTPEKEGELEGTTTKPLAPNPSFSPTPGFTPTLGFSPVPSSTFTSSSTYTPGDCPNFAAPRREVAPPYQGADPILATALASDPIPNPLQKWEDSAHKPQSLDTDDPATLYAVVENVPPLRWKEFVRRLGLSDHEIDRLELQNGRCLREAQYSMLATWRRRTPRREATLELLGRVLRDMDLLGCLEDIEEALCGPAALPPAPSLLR
# label = Criterion met if IC50 < 600 nM else Criterion not met

Would you kindly verify if IC50 of `CCN1C(=O)C(=Cc2sccc2C)C(=O)N(CC)C1=S` is strictly less than 600 nM?
Criterion not met

Dear reviewer, please state whether `CCN1C(=O)c2cc3c(OC)cc(OCC(=O)OC(C)(C)C)cc3n2C1=S` has IC50 strictly beneath 600 nM.
Criterion met

Record `Cc1ccccc1N1C(=O)C(=Cc2c[nH]c3ccccc23)C(=O)N(c2ccccc2C)C1=S` : is its IC50 strictly below 600 nM?
Criterion not met

Decide: IC50 of `CCN1C(=O)C(=Cc2c[nH]c3ccc([N+](=O)[O-])cc23)C(=O)N(CC)C1=S` strictly below 600 nM?
Criterion not met

Problem: For the compound `Cc1ccccc1N1C(=O)/C(=C/c2c[nH]c3ccccc23)C(=O)NC1=S` , is IC50 under 600 nM?
Criterion not met

Given `C=CCN1C(=O)c2cc3c(OC)cc(OC)cc3n2C1=S` , is recorded IC50 strictly lower than 600 nM?
Criterion met

Does `O=C1C(=Cc2ccc(-c3ccccc3C(F)(F)F)o2)C(=O)N(c2ccccc2)C(=S)N1c1ccccc1` have IC50 strictly under 600 nM?
Criterion not met

Identify whether the compound `CCN1C(=O)C(=Cc2c[nH]c3ccccc23)C(=O)N(CC)C1=S` records IC50 below 600 nM.
Criterion not met

Is 600 nM strictly greater than the compound's reported IC50? compound: `CCN1C(=O)C(=Cc2ccc(Br)s2)C(=O)N(CC)C1=S`
Criterion not met

Given `CCN1C(=O)c2cc3c(OC)cc(OCc4ccccn4)cc3n2C1=S` , is recorded IC50 strictly lower than 600 nM?
Criterion met

---

assayed target: Tumor necrosis factor receptor superfamily member 1A (Homo sapiens)
protocol summary: Compound was tested for inhibition of TNF-alpha binding to TNFRc1 at a concentration of 10 uM
For each of the compounds below, state its inhibition.
I only need the number, in %, no unit after it.

Bench note: what inhibition did `CCN1C(=O)C(=Cc2ccc(-c3cc(C(F)(F)F)nn3C)s2)C(=O)N(CC)C1=S` show?
33

Consider the compound `CCN1C(=O)c2cc3ccccc3n2C1=S` and give its measured inhibition.
27

Name the recorded inhibition for `C=CCN1C(=O)c2c(C)c3c(OC)cc(OC)cc3n2C1=O` .
0

Quick one: inhibition of `CCN1C(=O)C(=Cc2ccncc2)C(=O)N(CC)C1=S` ?
0

Sample `CCN1C(=O)C(=Cc2cn(C(C)=O)c3ccccc23)C(=O)N(CC)C1=S` — what was its inhibition?
15

Record request: inhibition value, item `CCN1C(=O)C(=Cc2cc(Br)cs2)C(=O)N(CC)C1=S`
2

Requested read-out: inhibition. Entry: `C=CCN1C(=O)c2cc3c(OC)cc(OC)cc3n2C1=O`
0

What value of inhibition has been reported for the following compound? `C=CCN1C(=O)c2cc3cc(OC)c(OC)cc3n2C1=S`
53

If you can, please state the reported inhibition value of `C=CCN1C(=O)c2c(C)c3c(OC)cc(OC)cc3n2/C1=N/C#N` .
19

What value of inhibition has been reported for the following compound? `CCN1C(=O)/C(=C/c2c[nH]c3ccccc23)SC1=S`
40

Sample `CCN1C(=O)c2cc3c(OC)cc(OCC(=O)O)cc3n2C1=S` — what was its inhibition?
42
